biological target: human BACE-1 (Homo sapiens, UniProt P56817); experiment: In Vitro BACE Assay (CEREP, fluorogenic substrate); details: recombinant enzyme, pH 4.5, 60 min at 37° C.
Sequence (P56817 46-501): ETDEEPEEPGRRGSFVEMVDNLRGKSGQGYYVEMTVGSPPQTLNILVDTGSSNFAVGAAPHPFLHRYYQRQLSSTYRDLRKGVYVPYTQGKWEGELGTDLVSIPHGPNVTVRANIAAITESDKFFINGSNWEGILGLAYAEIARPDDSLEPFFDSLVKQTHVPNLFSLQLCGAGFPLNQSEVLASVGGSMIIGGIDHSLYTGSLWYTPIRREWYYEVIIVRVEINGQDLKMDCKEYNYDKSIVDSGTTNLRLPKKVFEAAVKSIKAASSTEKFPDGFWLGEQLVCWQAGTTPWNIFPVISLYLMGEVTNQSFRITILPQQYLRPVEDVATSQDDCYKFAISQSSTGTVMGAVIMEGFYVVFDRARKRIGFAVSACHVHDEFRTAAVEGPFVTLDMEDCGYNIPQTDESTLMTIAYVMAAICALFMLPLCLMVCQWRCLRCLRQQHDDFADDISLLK
pIC50: −log10 of the molar value.
PARAMETER: pIC50

Solved cases below.
1. Cc1ccc(CNCc2cccc(Sc3ccc4nc(N)c(CC5CCOCC5)cc4c3)c2)c(C)c1    6.35
2. Nc1nc2ccc(Sc3cccc(CSc4cccc(CC(=O)O)c4)c3)cc2cc1CC1CCOCC1    6.48
3. CCCC(NCc1cccc(Sc2ccc3nc(N)c(CC4CCOCC4)cc3c2)c1)C(=O)O (stereo not drawn)    5.55

1 = COc1ccc(CNCc2cccc(Sc3ccc4nc(N)c(CC5CCOCC5)cc4c3)c2)c(OC)c1
2 = Nc1nc2ccc(Sc3cccc(CNCc4cc(F)ccc4F)c3)cc2cc1CC1CCOCC1
### Prompt Form field 'greater pIC50' accepts 1 or 2 ; which applies? State the label of the item chosen.
### Response 2
(2: 6.68, 1: 6.42)

a = Nc1nc2ccc(Sc3cccc(CNCc4ccc(C(F)(F)F)cc4)c3)cc2cc1CC1CCOCC1
b = CCOc1ccccc1CNCc1cccc(Sc2cc3cc(CC4CCOCC4)c(N)nc3cc2F)c1
c = Nc1nc2ccc(Sc3cccc(CNCc4ccccn4)c3)cc2cc1CC1CCOCC1
d = CCOc1ccccc1CNCCc1cccc(Sc2ccc3nc(N)c(CC4CCOCC4)cc3c2)c1
### Prompt Which order do these items take when sorted by rising pIC50? List them. Hello, could you send the labels back in the order asked? Thank you.
### Response c, a, b, d
(c: 6.10, a: 6.34, b: 6.59, d: 6.85)

I = Nc1nc2ccc(Sc3cccc(CNCc4ccc(Cl)cc4Cl)c3)cc2cc1CC1CCOCC1
II = Cc1cc(C)c(NCc2cccc(Sc3ccc4nc(N)c(CC5CCOCC5)cc4c3)c2)c(C)c1
III = Nc1nc2ccc(Sc3cccc(CNCc4c(F)cccc4F)c3)cc2cc1CC1CCOCC1
### Prompt Place the items in sequence of falling pIC50. Form field (ranking): labels in requested order.
### Response I, III, II

a = Cc1cc(C)c(CNCc2cccc(Sc3ccc4nc(N)c(CC5CCOCC5)cc4c3)c2)c(C)c1
b = Cc1ccc(C)c(COCc2cccc(Sc3ccc4nc(N)c(CC5CCOCC5)cc4c3)c2)c1
### Prompt Among a and b , whose measured pIC50 is the smaller figure? Answer = label.
### Response b

###

target: human BACE-1 (Homo sapiens); experiment: In Vitro BACE Assay (CEREP, fluorogenic substrate); assay type: biochemical; conditions: 10 μM test compound; recombinant enzyme, pH 4.5
PARAMETER: inhibition at 10 µM (%)

1) Nc1nc2ccc(Sc3cccc(CSc4cccc(CC(=O)O)c4)c3)cc2cc1CC1CCOCC1    94

I = CCOc1ccccc1CNCCc1cccc(Sc2ccc3nc(N)c(CC4CCOCC4)cc3c2)c1
II = CCCC(NCc1cccc(Sc2ccc3nc(N)c(CC4CCOCC4)cc3c2)c1)C(=O)O (stereo not drawn)
### Prompt Given the listed records, identify the one among I and II with higher inhibition at 10 µM. Please reply using the label of the selected record.
### Response I

###

molecular target: human BACE-1 (Homo sapiens, UniProt P56817); test: In Vitro BACE Assay (CEREP, fluorogenic substrate); settings: recombinant enzyme, pH 4.5, 60 min at 37° C.
pIC50: −log10 of the molar value.
PARAMETER: pIC50

1) Cc1cc(C)c(CNCc2cccc(Oc3ccc4nc(N)c(CC5CCOCC5)cc4c3)c2)c(C)c1    5.92

a = Nc1nc2ccc(Sc3cccc(CCNCc4ccccn4)c3)cc2cc1CC1CCOCC1
b = CCOc1ccccc1CNCc1cccc(Sc2ccc3nc(N)c(CC4CCOCC4)cc3c2)c1
### Prompt Looking at recorded values for pIC50, does a or b come in lower? Field: selected label. Fill in the label of the entry you choose.
### Response a
(a: 6.20, b: 6.52)
